Tested on: U-251
Test: NCI tumour cell line growth inhibition, 48 h
Active and inactive are the calls of the source. Cut-off read from the data, not from the text of the source: active = GI50 up to about 1.1 µM and inactive = higher.
property.label: GI50

C[n+]1c2ccccc2cc2c(CNC(CCCNC(=N)N)C(=O)O)cccc21 (centres undefined) | 1.61 µM (inactive)
COC(=O)N/N=C(\C)C(CN1CCCCC1)C(C1=C(O)c2ccccc2OC1)c1ccccc1 (centres undefined) | 43.1 µM (inactive)
C=CCN1/C(=C2\SC(=S)N(c3ccc(C)cc3)C2=O)Sc2c1nc[nH]c2=O | 79.8 µM (inactive)
Cc1cc(N(CCC#N)CCC#N)ccc1/C=C1\N=C(c2cc([N+](=O)[O-])ccc2Cl)N(c2cccc(Cl)c2)C1=O | > 100 µM (inactive)
O=C(NCP(=O)(O)O)c1cccnc1 | > 100 µM (inactive)

For this compound ( CC1(C)COCN1COC1CCCCC1 ), measured GI50 is > 100 µM (inactive)

For this compound ( O=C1/C(=C\c2ccccc2)C2/C(=C\c3ccccc3)C(=O)/C(=C\c3ccccc3)C2/C1=C\c1ccccc1 (centres undefined) ), measured GI50 is 1.17 µM (inactive)

For this compound ( C=CCOc1ccc(C(=N/NC(=O)c2ccccc2)/N=N/c2ccc([N+](=O)[O-])cc2)cc1OC ), measured GI50 is > 100 µM (inactive)

For this compound ( C/C=C1/CN2CCC34c5ccccc5N(C)C23C2CC1C4(C(=O)OC)C(O)O2 (centres undefined) ), measured GI50 is > 100 µM (inactive)

###

Test system: SF-268
Assay: NCI tumour cell line growth inhibition, 48 h
Active and inactive are the calls of the source. Cut-off read from the data, not from the text of the source: active = GI50 up to about 1.1 µM and inactive = higher.
property.label: GI50

O=C(Nc1cccc([N+](=O)[O-])c1)C(=O)C(C(=O)c1ccccc1F)C1OC(=O)C2C=CC=CC21 (stereo not given) | 19.7 µM (inactive)

For this compound ( COCCn1cnc2c(Cl)nc(Nc3ccccc3)nc21 ), measured GI50 is 39.4 µM (inactive)

For this compound ( COC(=O)C(=O)C(C#N)c1cccc2ccccc12 (stereo not given) ), measured GI50 is > 100 µM (inactive)

For this compound ( CCOC(=O)Cc1cnc(NC(NC(=O)CC)(C(F)(F)F)C(F)(F)F)s1 ), measured GI50 is > 100 µM (inactive)

For this compound ( CC(=O)OCC1OC(Nc2ccc3nc(C)n(-c4cccc(C)c4)c(=O)c3c2)C(OC(C)=O)C(OC(C)=O)C1OC(C)=O (stereo not given) ), measured GI50 is > 62.5 µM (inactive)

###

Tested on: HOP-92
Assay: NCI tumour cell line growth inhibition, 48 h
Calls of active or inactive are those of the source. Rule as the data show it: active = GI50 up to about 1.1 µM and inactive = higher.
The compounds listed here are annotated with their GI50.

N#CC(C#N)=Cn1c(=S)[nH]c2ccc([N+](=O)[O-])cc21 | > 100 µM (inactive)

Param item: CNS(=O)(=O)NNS(=O)(=O)c1ccc(Br)cc1 ; param system: HOP-92; output GI50: 32.1 µM (inactive)

Param item: O=P1(O)c2ccccc2CCc2ccccc21 ; param system: HOP-92; output GI50: > 100 µM (inactive)

Param item: COC(=O)Cc1c(-c2c(CC(=O)OC)c3ccccc3n2C2OC(COC3OC(COC(C)=O)C(OC(C)=O)C(OC(C)=O)C3OC(C)=O)C(O)C(O)C2O)[nH]c2ccccc12 (stereo not given) ; param system: HOP-92; output GI50: 27.9 µM (inactive)

Param item: CCOc1ccc(Nc2nc(N)nc(N)c2N=O)cc1 ; param system: HOP-92; output GI50: 17.9 µM (inactive)

Param item: COc1ccc(/C=N\N(C)Cc2cccc3ccsc23)cc1 ; param system: HOP-92; output GI50: > 100 µM (inactive)

Param item: c1ccc2c(CNCCCCCCCCNCc3cccc4ccccc34)cccc2c1 ; param system: HOP-92; output GI50: 2.49 µM (inactive)

Param item: CCOC(=O)C1=C(C)N(Cc2ccc(Cl)cc2Cl)C2(O)C(OC)CC(=O)C3C(=O)N(c4ccccc4)C(=O)C132 (stereo not given) ; param system: HOP-92; output GI50: 0.0541 µM (active)

Param item: COC(=O)C(=O)C(C#N)c1cccc2ccccc12 (stereo not given) ; param system: HOP-92; output GI50: > 100 µM (inactive)

Param item: COc1ccc(NCc2cc(OC)c(OC)c(OC)c2)cc1 ; param system: HOP-92; output GI50: 1.39 µM (inactive)

Sourced from ChEMBL document CHEMBL1201862
